Organism: Homo sapiens
PROCEDURE TEXT: In vitro cytotoxicity against Human lung tumor cells.
Type: functional
MEASURE NAME: IC50

| COMPOUND | MEASURE NAME | VALUE REPORTED |
| --- | --- | --- |
| CC(=O)Oc1ccc(C(=NNc2ccc([N+](=O)[O-])cc2[N+](=O)[O-])c2ccc(OC(C)=O)cc2)cc1 | IC50 | > 10 µg/mL |
| O=[N+]([O-])c1ccc(NN=C(c2ccc(O)cc2O)c2ccc(O)cc2O)c([N+](=O)[O-])c1 | IC50 | > 5 µg/mL |
| O=[N+]([O-])c1ccc(/N=N/c2c3cccc(O)c3c(O)c3c(O)cccc23)c([N+](=O)[O-])c1 | IC50 | 0.12 µg/mL |
| CC(=O)c1ccc2c(c1)/C(=N\Nc1ccc([N+](=O)[O-])cc1[N+](=O)[O-])c1ccc(C(C)=O)cc1-2 | IC50 | > 5 µg/mL |
| O=[N+]([O-])c1ccc(NN=C2c3cc(O)ccc3-c3ccc(O)cc32)c([N+](=O)[O-])c1 | IC50 | > 10 µg/mL |
| O=[N+]([O-])c1ccc(/N=N/c2c3ccccc3c(O)c3c(O)c4ccccc4cc23)c([N+](=O)[O-])c1 | IC50 | 0.1 µg/mL |
| Oc1ccc(C(=NNc2ccccc2)c2ccc(O)cc2)cc1 | IC50 | > 10 µg/mL |
| O=[N+]([O-])c1ccc(NN=c2c3ccccc3[s+]([O-])c3ccccc23)c([N+](=O)[O-])c1 (stereo unspecified) | IC50 | > 10 µg/mL |
| O=[N+]([O-])c1ccc(/N=N/c2c3cc(O)ccc3c(NNc3ccc([N+](=O)[O-])cc3[N+](=O)[O-])c3cc(O)ccc23)c([N+](=O)[O-])c1 | IC50 | 1 µg/mL |
| O=[N+]([O-])c1ccc(NN=C(c2ccccc2O)c2ccccc2O)c([N+](=O)[O-])c1 | IC50 | 6 µg/mL |
| CC(=O)Oc1cccc2c(/N=N/c3ccc([N+](=O)[O-])cc3[N+](=O)[O-])c3cccc(OC(C)=O)c3c(O)c12 | IC50 | 0.1 µg/mL |
| O=[N+]([O-])c1ccc(NN=c2c3ccccc3oc3ccccc23)c([N+](=O)[O-])c1 | IC50 | > 10 µg/mL |
| C=CCOc1cccc2c(/N=N/c3ccc([N+](=O)[O-])cc3[N+](=O)[O-])c3cccc(OC(C)=O)c3c(O)c12 | IC50 | 0.07 µg/mL |
| O=[N+]([O-])c1ccc(/N=N/c2c3ccccc3c(O)c3c(O)c(O)ccc23)c([N+](=O)[O-])c1 | IC50 | > 10 µg/mL |
| O=[N+]([O-])c1ccc(NN=C(c2ccccc2)c2ccccc2)c([N+](=O)[O-])c1 | IC50 | > 5 µg/mL |
| O=c1c2cccc3c2c(nn1-c1ccccc1[N+](=O)[O-])-c1ccccc1-3 | IC50 | > 5 µg/mL |

Origin of the recorded values: ChEMBL document CHEMBL1145129
